# protocol: gradient 5% acetonitrile 3 min, to 50% in 2 min, to 85% in 15 min, held 3 min, 100 µL/min
# assay_setup: column: Zorbax Extend-C18 2.1 x 50 mm; eluents: water / acetonitrile, 0.1% formic acid
RP-LC retention time vs 900 s: at or above is Satisfied, below is Not satisfied.

Examples from the recorded data:
compound: COc1ccc(CNC(=O)Cn2nc3c4ccccc4ncn3c2=O)cc1
category: Not satisfied
//
compound: CS(=O)(=O)N1CCc2cc(NC(=O)Nc3ccc(Br)cc3F)ccc21
category: Satisfied
//
compound: O=C(O)c1ccc(NC(=O)N2C[C@@H]3C[C@@H](C2)c2cccc(=O)n2C3)cc1
category: Not satisfied
//
compound: CN(C)CC1CCC2=C(C1=O)C(c1ccc(Cl)c(Cl)c1)C1=C(CCC(CN(C)C)C1=O)O2 (centres undefined)
category: Not satisfied
//
compound: O=C(c1cc2ccccc2[nH]1)N1CCC(c2noc(C3CC3)n2)C1 (centres undefined)
category: Satisfied
//
compound: Cc1ccc(NC(=O)Cn2nc3c(Oc4ccc(F)cc4)nccn3c2=O)cc1
category: Not satisfied

Would you kindly look at the next entry?
Inquiry: I'd appreciate it if you could say whether "Cc1cc(C)n(Cc2nc(-c3ccc(NC(=O)COc4ccccc4)cc3)oc2C)n1" has RP-LC retention time at least equal to 900 s.
Reply text: Satisfied

* * *

# protocol: gradient 5% acetonitrile 3 min, to 50% in 2 min, to 85% in 15 min, held 3 min, 100 µL/min
# assay_setup: column: Zorbax Extend-C18 2.1 x 50 mm; eluents: water / acetonitrile, 0.1% formic acid
Please respond with class 1 when measured RP-LC retention time is strictly beneath 800 s, and with class 0 in all other cases.

Examples from the recorded data:
compound: CCOc1ccc(OCC)c(S(=O)(=O)N2CCN(c3nc(C)cc(N(C)C)n3)CC2)c1
category: class 1

compound: O=C(c1ccc(-c2noc(C3CCC3)n2)cc1)N1CCCC1
category: class 0

compound: COC(=O)C(NC(=O)N1CCCn2nc(-c3ccncc3)cc2C1)c1ccccc1 (stereo unspecified)
category: class 1

compound: CCOC(=O)c1ccc(N2C=C(C#N)S(=O)(=O)c3ccc(F)cc32)cc1
category: class 0

compound: O=C(NCCC1=CCCCC1)C(=O)NCC1CCN(Cc2ccccc2)CC1
category: class 1

Inquiry: Hello, is RP-LC retention time of the following compound strictly smaller than 800 s? O=C(Cn1cnc2nc(N3CCCC(C(=O)NC4CC4)C3)sc2c1=O)Nc1cc(F)ccc1F (stereo unspecified)
Reply text: class 1

Inquiry: For CCCCN(C)C(=O)Cn1c(C2CC(=O)N(C3CCCC3)C2)nc2ccccc21 (stereo unspecified) then?
Reply text: class 1

Inquiry: For "COCCCNC(=O)C1CCN(c2nc3cccnc3s2)CC1" then?
Reply text: class 1

Inquiry: For "CN(C)CCCNC(=O)C1CCN(c2nc3ccc(-c4cccnc4)nc3s2)CC1" then?
Reply text: class 1

Inquiry: For "CCOC(=O)CNC(=O)N(C)Cc1nc2cc(C(=O)N(C)C)ccc2n1C" then?
Reply text: class 1

Inquiry: For "COc1ccccc1N1CCN(c2nccc(-n3nc(C)cc3C)n2)CC1" then?
Reply text: class 0

Inquiry: For "CNS(=O)(=O)c1cccnc1Nc1ccccc1" then?
Reply text: class 0

Inquiry: For "Cc1cccn2cc(-c3cccc(NS(=O)(=O)c4ccc(Br)cc4)c3)nc12" then?
Reply text: class 1

Inquiry: For "Cc1[nH]c(C)c(S(=O)(=O)N2CCC(C(=O)NC3CCCCCC3)CC2)c1C(=O)N1CCCC1" then?
Reply text: class 1

Inquiry: For "Cc1ccccc1CSc1ncnc2nc[nH]c12" then?
Reply text: class 1

Inquiry: For "Cc1ccccc1Oc1nccn2c(=O)n(CC(=O)Nc3ccccc3Cl)nc12" then?
Reply text: class 0

Inquiry: For CCCCNC(=O)C(CC)n1nc(C)c2nn(-c3ccccc3)c(C)c2c1=O (stereo unspecified) then?
Reply text: class 0

Inquiry: For CC(CNC(=O)CN1C(=O)CCCc2ccccc21)c1ccccc1 (stereo unspecified) then?
Reply text: class 0

Inquiry: For "O=C(Nc1nnc(-c2cccs2)o1)c1cc(Cl)ccc1Cl" then?
Reply text: class 1

Inquiry: For CCCNC(=O)N1CCCC1c1nc(-c2ccccc2C)no1 (stereo unspecified) then?
Reply text: class 0
